system name: Full length LIGHT S192A on HEK293FF cells (Homo sapiens (Human), UniProt O43557 1-240)
Sequence (O43557 whole entry S192A): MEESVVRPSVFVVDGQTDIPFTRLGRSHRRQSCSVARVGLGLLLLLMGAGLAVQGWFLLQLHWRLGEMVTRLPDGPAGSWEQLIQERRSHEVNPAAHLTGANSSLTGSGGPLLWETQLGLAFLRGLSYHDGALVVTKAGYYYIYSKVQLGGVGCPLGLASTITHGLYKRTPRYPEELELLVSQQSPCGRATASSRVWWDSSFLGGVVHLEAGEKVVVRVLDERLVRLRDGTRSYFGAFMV
procedure details: flow cytometry, HEK293FF, mAb at EC50
measured parameter: % of WT binding (%)
One number for each entry, in %.

Field % of WT binding (entry 3C10 chimeric IgG4 mAb (antibody, V domains shown, Chimeric human IgG4 (S-to-P, L-to-E) with human CL, as m1; also called Parental 3C10) VH: EVQLQQSGAELVRPGASVTLSCKASDYTFTDSEIHWVKQTPVHGLEWIGEIDPETGGTAYNQKFKGKATLTADKSSSTAYMELRSLTSEDSAVYYCSRETDYFFDYWGQGTTLTVSS VL: DVVMTQTPAIMSASPGEKVTMTCSASSSVSYMYWYQQKPGSSPRLLIYDTSNLASGVPVRFSGSGSGTSYSLTISRMEAEDAATYYCQQWSSYPLTFGAGTKLELK ) reads 35
